- measurement target: T1, human NPR1 extracellular domain expressed with a C-terminal myc-myc-hexahistidine (hNPR1-MMH) (human, UniProt P16066 33-473)
- T1 construct: also called hNPR.mmh; monomeric human NPR1
- T1 sequence (P16066 other isoform, or with tags, fused parts or gaps): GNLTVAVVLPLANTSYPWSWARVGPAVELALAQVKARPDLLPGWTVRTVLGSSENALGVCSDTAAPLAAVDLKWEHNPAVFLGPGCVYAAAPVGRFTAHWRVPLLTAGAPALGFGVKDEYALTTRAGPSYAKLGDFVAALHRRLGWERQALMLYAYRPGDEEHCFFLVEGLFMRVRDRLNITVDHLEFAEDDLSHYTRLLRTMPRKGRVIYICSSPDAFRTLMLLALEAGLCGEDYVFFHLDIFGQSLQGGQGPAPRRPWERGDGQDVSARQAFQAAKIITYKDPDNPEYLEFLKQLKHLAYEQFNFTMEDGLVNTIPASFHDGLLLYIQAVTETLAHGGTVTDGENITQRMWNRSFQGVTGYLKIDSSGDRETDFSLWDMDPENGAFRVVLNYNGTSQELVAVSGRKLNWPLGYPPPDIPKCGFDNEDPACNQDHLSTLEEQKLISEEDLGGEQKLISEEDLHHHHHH
- procedure text: SPR, mAb captured, 37 C
I'd appreciate it if you could supply kon values for the items below.
Answers are plain numbers, in M⁻¹ s⁻¹.

mAb25508 (antibody, V domains shown) VH: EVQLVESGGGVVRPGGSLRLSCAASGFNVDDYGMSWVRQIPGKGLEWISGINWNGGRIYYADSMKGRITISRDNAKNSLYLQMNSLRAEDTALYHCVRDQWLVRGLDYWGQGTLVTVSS VL: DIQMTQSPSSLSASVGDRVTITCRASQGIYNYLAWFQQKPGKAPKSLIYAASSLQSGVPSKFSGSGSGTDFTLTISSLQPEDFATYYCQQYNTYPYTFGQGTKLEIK; 453000

stdin: # input binder: mAb25479 (antibody, V domains shown) VH: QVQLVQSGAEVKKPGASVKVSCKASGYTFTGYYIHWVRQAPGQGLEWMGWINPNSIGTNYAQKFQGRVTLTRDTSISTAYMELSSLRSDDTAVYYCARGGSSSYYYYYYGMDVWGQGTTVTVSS VL: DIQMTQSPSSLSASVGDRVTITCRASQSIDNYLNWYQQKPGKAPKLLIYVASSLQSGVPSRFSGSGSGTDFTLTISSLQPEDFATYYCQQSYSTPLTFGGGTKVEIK ; wanted: its kon
stdout: 22800
